Each entry below carries its recorded IC50.
biological target: DCN1 (DCUND1) protein PONY domain (Homo sapiens (Human), UniProt Q96GG9); test: TR-FRET assay, DCN1 binding with FAM-labeled probe; details: TR FRET IC50 1 hr (nM), 1 hr after treatment with compound
Sequence (Q96GG9 60-248): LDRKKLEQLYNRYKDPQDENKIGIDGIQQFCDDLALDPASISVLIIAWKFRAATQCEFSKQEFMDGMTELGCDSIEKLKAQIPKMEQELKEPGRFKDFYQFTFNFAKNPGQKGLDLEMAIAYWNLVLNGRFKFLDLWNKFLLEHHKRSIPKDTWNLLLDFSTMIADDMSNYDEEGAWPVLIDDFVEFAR

Consider the reported IC50 for these molecules:
# molecule, systemUnderTest, propertyMeasured, measured
records = [
    ("CCN1C(=O)[C@@H](NC(=O)c2cccc(C(F)(F)F)c2)[C@@H](c2ccc(F)cc2)c2c(C(=O)N3CC[C@@H]3C#N)nn(-c3ccccc3)c21 [Compound I-570]", "DCN1 (DCUND1) protein PONY domain (Homo sapiens (Human), UniProt Q96GG9)", "IC50", "1000 to 3000 nM"),
    ("CCN1C(=O)[C@@H](NC(=O)c2cccc(C(F)(F)F)c2)[C@@H](C2CC2)c2c(C(=O)N3CCNC[C@@H]3C#N)nn(C3CCOCC3)c21 (single isomer, unassigned) [Compound I-371]", "DCN1 (DCUND1) protein PONY domain (Homo sapiens (Human), UniProt Q96GG9)", "IC50", "200 to 1000 nM"),
    ("CCN1C(=O)[C@@H](NC(=O)c2c(Cl)ccc(OC)c2F)[C@@H](C2CC2)c2c(C(=O)N3[C@H](C#N)C[C@H]4C[C@H]43)nn(C3CCOCC3)c21 [Compound I-697]", "DCN1 (DCUND1) protein PONY domain (Homo sapiens (Human), UniProt Q96GG9)", "IC50", "1000 to 3000 nM"),
    ("CCN1C(=O)[C@@H](NC(=O)c2cccc(C(F)(F)F)c2)[C@@H](c2ccc(F)cc2)c2c(CNC(=O)CC#N)nn(-c3ccccc3)c21 (racemic) [Compound I-147]", "DCN1 (DCUND1) protein PONY domain (Homo sapiens (Human), UniProt Q96GG9)", "IC50", "1000 to 3000 nM"),
    ("CCN1C(=O)[C@H](NC(=O)c2cccc(C(F)(F)F)c2)[C@H](c2ccc(F)cc2)c2c(C(=O)N3CCNC[C@@H]3C#N)nn(-c3ccccc3)c21 [Compound I-534]", "DCN1 (DCUND1) protein PONY domain (Homo sapiens (Human), UniProt Q96GG9)", "IC50", "1000 to 3000 nM"),
]

IN: Quick one: IC50 for CCN1C(=O)[C@H](NC(=O)c2cccc(C(F)(F)F)c2)[C@H](c2ccc(C)cc2)c2c(C(=O)N(C)CC#N)nn(C3CC3)c21 [Compound I-494] ?
OUT: 1000 to 3000 nM

IN: Which measured IC50 value corresponds to CCN1C(=O)[C@@H](NC(=O)C2CCOc3ccccc32)[C@@H](C2CC2)c2c(C(=O)N3[C@H](C#N)C[C@H]4C[C@H]43)nn(C3CCOCC3)c21 (stereo partly drawn) [Compound I-598] ?
OUT: 1000 to 3000 nM

IN: Quick check: IC50 of CCN1C(=O)[C@@H](NC(=O)c2cccc(F)c2)[C@@H](C2CC2)c2c(C(=O)N3[C@H](C#N)C[C@H]4C[C@H]43)nn(C3CCOCC3)c21 [Compound I-690] ?
OUT: 200 to 1000 nM

IN: If you can, please state the reported IC50 value of CCN1C(=O)[C@H](NC(=O)c2cccc(C(F)(F)F)c2)[C@H](c2ccc(F)cc2)c2c(C(=O)N3CCC[C@H]3C#N)nn(-c3cccc(OCCCN4CCC5(CC4)COC5)c3)c21 [Compound I-581] .
OUT: 1000 to 3000 nM

IN: Find the recorded IC50 belonging to CCN1C(=O)[C@H](NC(=O)c2cccc(C(F)(F)F)c2)[C@H](c2ccc(F)cn2)c2c([C@@H](C)NC#N)nn(-c3ccccc3)c21 [Compound I-525] and report it.
OUT: 1000 to 3000 nM

IN: Could you share which IC50 value was measured for CCN1C(=O)[C@@H](NC(=O)c2cccc(C(F)(F)F)c2)[C@@H](C2CC2)c2c(C(=O)N3CS(=O)(=O)C[C@@H]3C#N)nn(-c3ccccc3)c21 [Compound I-521] ?
OUT: 1000 to 3000 nM

IN: Quick one: IC50 of CCN1C(=O)[C@@H](NC(=O)c2cccc(C(F)(F)F)c2)[C@@H](c2ccc(F)cc2)c2c([C@H](CCCO)NC#N)nn(-c3ccccc3)c21 [Compound I-489] ?
OUT: 200 to 1000 nM

IN: I'd like to know its IC50. The molecule in question is CCN1C(=O)[C@@H](NC(=O)c2cccc(C(F)(F)F)c2)[C@@H](c2ccc(F)cc2)c2c(C(=O)N3CCC[C@@H]3C#N)nn(-c3ccccc3)c21 (mixture of isomers) [Compound I-94]
OUT: 200 to 1000 nM

IN: Which IC50 value is on record for CCN1C(=O)[C@H](NC(=O)c2cccc(C(F)(F)F)c2)[C@H](C2CC2)c2c(C(=O)N(CC#N)C3CC3)nn(-c3ccccc3)c21 [Compound I-557] ?
OUT: 1000 to 3000 nM

IN: Quick check: IC50 of CCN1C(=O)[C@@H](NC(=O)c2cccc(C(F)(F)F)c2)[C@@H](c2ccc(F)cc2)c2c(CN(C)C/C=C/C(=O)OC(C)(C)C)nn(-c3ccccc3)c21 [Compound I-604] ?
OUT: 1000 to 3000 nM
